Below is a list of entries, each paired with its recorded IC50 (cytotoxic activity) value.
- System: LLC-PK1 cells
- TEST: cytotoxic activity against mammalian cells in tissue culture (MTT)
- Assay type: cell-based, pig

{"COMPOUND": "C[C@@H]1[C@H](O)[C@@H](C)/C=C/C=C/C=C/C=C/C=C/C=C/C=C/[C@H](O[C@@H]2O[C@H](C)[C@@H](O)[C@H](NC(=S)NCCN3CCOCC3)[C@@H]2O)C[C@@H]2O[C@](O)(C[C@@H](O)C[C@@H](O)[C@H](O)CC[C@@H](O)C[C@@H](O)CC(=O)O[C@H]1C)C[C@H](O)[C@H]2C(=O)O", "IC50 (cytotoxic activity)": ">100 µg/mL"}

Let us move to another entry and its IC50 (cytotoxic activity).
For the compound CCCN(CC1(O)OCC(O)C(O)C1O)C1C(O)C(C)OC(OC2C=CC=CC=CC=CC=CC=CC=CC(C)C(O)C(C)C(C)OC(=O)CC(O)CC(O)CCC(O)C(O)CC(O)CC3(O)CC(O)C(C(=O)O)C(C2)O3)C1O (centres unmarked) , give its reported IC50 (cytotoxic activity).
>100 µg/mL
